pIC50: −log10 of the molar value.
Below, pIC50 values reported for Tyrosine-protein kinase receptor UFO (Homo sapiens) across several publications.

Which value of pIC50 has been reported for CC[C@H](C)Nc1ncc2c(NC34CCC(O)(CC3)CC4)ncc([C@H]3CC[C@H](O)CC3)c2n1 in the records?
6.00 to 7.00

Using the record for CCn1c(C)c(C(=O)Nc2ccc(Oc3ncnc4[nH]cc(-c5ccccc5)c34)c(F)c2)c(=O)c2cc(C)ccc21 , report its pIC50.
6.84

Can you look up the measured pIC50 of COc1cc2nccc(Oc3ccc(NC(=O)c4c(C)ncc(-c5ccccn5)c4O)cc3F)c2nc1OC for me?
≥ 7.00

---
Which measured pIC50 value corresponds to COC[C@H](C)Nc1ncc2c(-c3cnn(C(C)(C)CN4CCOCC4)c3)cc([C@H]3CC[C@H](O)CC3)n2n1 ?
≥ 7.00

---

Across several studies, compounds have been characterized by their IC50 on Tyrosine-protein kinase receptor UFO (Homo sapiens); a selection follows.

Checklist item: IC50 tested on Tyrosine-protein kinase receptor UFO (Homo sapiens), entry COC[C@H](C)Nc1ncc2c(Nc3ccncc3)ncc([C@H]3CC[C@H](O)CC3)c2n1 , value?
1000 to 10000 nM

Given the entry COC[C@H](C)Nc1ncc2c(-c3cnn(C(C)(C)C(=O)N4CCC(C)(O)CC4)c3)cc([C@H]3CC[C@H](O)CC3)n2n1 , what IC50 was observed with Tyrosine-protein kinase receptor UFO (Homo sapiens)?
≤ 100 nM

# query: IC50 | item COc1cc2nccc(Oc3ccc(NC(=O)c4cnc(C)c(C5=CCCCC5)c4O)cc3F)c2nc1OC | system: Tyrosine-protein kinase receptor UFO (Homo sapiens)
≤ 100 nM

Short answer please: IC50, Tyrosine-protein kinase receptor UFO (Homo sapiens), entry Nc1ncc(-c2cnn(C3CCCCC3)c2)cc1-c1cc(-c2ccccc2)on1
1000 to 10000 nM

API: value(readout=IC50, system=Tyrosine-protein kinase receptor UFO (Homo sapiens)) for record CC1(Nc2ncc3c(OC4CCOCC4)ncc(-c4cccc(S(=O)(=O)N5CCC5)c4)c3n2)CC1
100 to 1000 nM

Hi! What's the reported IC50 for CCNc1nc(Nc2ccc(CN3CCN(C)CC3)cc2)nc2[nH]cc(-c3ccc(F)cc3F)c12 on Tyrosine-protein kinase receptor UFO (Homo sapiens)?
< 30 nM

Next:
What IC50 appears in the records for this compound with Tyrosine-protein kinase receptor UFO (Homo sapiens)? COC[C@H](C)Nc1ncc2c(-c3cnn(CC(=O)N4CCOCC4)c3)cc([C@H]3CC[C@H](O)CC3)n2n1
≤ 100 nM

Form field: IC50 recorded for COc1cc2nccc(Oc3ccc(NC(=O)c4c5n(cc(C6=CCCCC6)c4=O)CCOC5)cc3F)c2nc1OC with Tyrosine-protein kinase receptor UFO (Homo sapiens) (enter value)
≤ 100 nM

Value wanted: IC50 (Tyrosine-protein kinase receptor UFO (Homo sapiens)) of entry COC[C@H](C)Nc1ncc2c(-c3cnn(C(C)(C)C(=O)N4CCOCC4)c3)cc([C@@H]3CCc4cn[nH]c4C3)n2n1
≤ 100 nM

Reported IC50 for Tyrosine-protein kinase receptor UFO (Homo sapiens), given COC[C@H](C)Nc1ncc2c(OC3CCOCC3)ncc([C@H]3CC[C@](C)(O)CC3)c2n1 ?
100 to 1000 nM

Recall the recorded IC50 for C[C@@H](COC(F)F)Nc1ncc2c(-c3ccnc(N4CCOC(C(C)(C)O)C4)c3)cc([C@H]3CC[C@H](O)CC3)n2n1 (stereo partly drawn) with Tyrosine-protein kinase receptor UFO (Homo sapiens) and state it.
≤ 100 nM

Give the reported IC50 for CNC(=O)c1ncc(-c2cc([C@H]3CC[C@H](O)CC3)n3nc(N[C@@H](C)CC(F)(F)F)ncc23)cn1 (system: Tyrosine-protein kinase receptor UFO (Homo sapiens)).
≤ 100 nM

Tell me reported IC50 for CC(CCOC(F)F)Nc1ncc2c(-c3ccc(CN4CCOCC4)cc3)cc(C3CCC(O)CC3)n2n1 (stereo not drawn) , tested with Tyrosine-protein kinase receptor UFO (Homo sapiens).
≤ 100 nM

Checklist item: IC50 tested on Tyrosine-protein kinase receptor UFO (Homo sapiens), entry COc1cnc2c(Oc3ccc(NC(=O)c4c(C)nc(C)c(C(N)=O)c4O)cc3F)ccnc2c1 , value?
> 300 nM

What IC50 appears in the records for this compound with Tyrosine-protein kinase receptor UFO (Homo sapiens)? COCCOc1nc(Nc2ccc(CN(C)C)cc2)nc2[nH]cc(-c3ccc(F)cc3F)c12
< 30 nM

---

Compiled IC50 measurements on Tyrosine-protein kinase receptor UFO (Homo sapiens) taken from the literature.

Item COC[C@H](C)Nc1ncc2c(-c3cnn(C[C@H]4CCC(=O)N4)c3)cc([C@H]3CC[C@H](O)CC3)n2n1 with Tyrosine-protein kinase receptor UFO (Homo sapiens) - IC50?
≤ 100 nM

Entry Nc1ncc(-c2cnn(C3CCOCC3)c2)cc1-c1nnc(-c2c(Cl)cccc2Cl)o1 , system Tyrosine-protein kinase receptor UFO (Homo sapiens): what IC50 was measured?
< 500 nM

Further cases:
Which measured IC50 belongs to CNC(=O)C(C)(C)n1cc(-c2cc([C@H]3CC[C@H](O)CC3)n3nc(N[C@@H](C)COC)ncc23)cn1 , tested on Tyrosine-protein kinase receptor UFO (Homo sapiens)?
≤ 100 nM

Record lookup: for Tyrosine-protein kinase receptor UFO (Homo sapiens), what IC50 belongs to COCCN1C(C)(C)CC(Oc2ncc([C@H]3CC[C@H](O)CC3)c3nc(N[C@@H](C)CC#N)ncc23)CC1(C)C ?
100 to 1000 nM

Identify the measured IC50 of C[C@H](CN(C)C)Nc1ncc2c(-c3cnn(C4COC4)c3)cc([C@H]3CC[C@H](O)CC3)n2n1 for Tyrosine-protein kinase receptor UFO (Homo sapiens).
1000 to 10000 nM

Quick check: IC50 on Tyrosine-protein kinase receptor UFO (Homo sapiens), item COC[C@H](C)Nc1ncc2c(-c3ccc(C(C)(C)C(=O)N4CCOCC4)s3)cc([C@H]3CC[C@H](O)CC3)n2n1 ?
≤ 100 nM

IC50 of COC[C@H](C)Nc1ncc2c([C@H]3CC[C@H](C(=O)N4CCN(C)CC4)CC3)cc([C@H]3CC[C@H](O)CC3)n2n1 on Tyrosine-protein kinase receptor UFO (Homo sapiens)?
≤ 100 nM

# get_value(readout= IC50, system= Tyrosine-protein kinase receptor UFO (Homo sapiens)) for O[C@H]1CC[C@H](c2cnc(OC3CCNCC3)c3cnc(Nc4cccc(F)c4)nc32)CC1
≤ 100 nM

Which IC50 is reported with Tyrosine-protein kinase receptor UFO (Homo sapiens) for this entry: COC[C@H](C)Nc1ncc2c(OC3CCN(c4ncccn4)CC3)ncc([C@H]3CC[C@H](O)CC3)c2n1 ?
100 to 1000 nM

Observed IC50 on Tyrosine-protein kinase receptor UFO (Homo sapiens) for COC[C@H](C)Nc1ncc2c(-c3cnn([C@H]4CCC(C(=O)OC(C)(C)C)C4)c3)cc([C@H]3CC[C@H](O)CC3)n2n1 (some centres unmarked) , please.
≤ 100 nM

Entry COCC(C)Nc1ncc2c(C3CCN(c4ccnc(C)n4)C3)cc(C3CCC(O)CC3)n2n1 (centres unmarked) , system Tyrosine-protein kinase receptor UFO (Homo sapiens): what IC50 was measured?
100 to 1000 nM

Lab note: need IC50 for COc1cc2nccc(Oc3ccc(NC(=O)c4c(C)n(C)c(C)c(N5CCOCC5)c4=O)cc3F)c2nc1OC on Tyrosine-protein kinase receptor UFO (Homo sapiens), anyone have it?
≤ 100 nM

Checklist item: IC50 tested on Tyrosine-protein kinase receptor UFO (Homo sapiens), entry COc1cc2nccc(Oc3ccc(NC(=O)c4cc5c(n(-c6ccccc6)c4=O)CCCC5=O)c(C)c3)c2cc1OC , value?
1.1 nM

Query IC50 on Tyrosine-protein kinase receptor UFO (Homo sapiens) for CNc1ncc2c(n1)N1CCN=C1C(c1cc(NC(=O)c3cn(C(C)C)c(=O)n(-c4ccc(F)cc4)c3=O)ccc1C)=C2
> 10000 nM

Lab note: need IC50 for CCC[C@H](C)Nc1ncc2c(OC3CCNCC3)ncc([C@H]3CC[C@H](O)CC3)c2n1 on Tyrosine-protein kinase receptor UFO (Homo sapiens), anyone have it?
≤ 100 nM

Short answer please: IC50, Tyrosine-protein kinase receptor UFO (Homo sapiens), entry COCC(C)Nc1ncc2c(-c3ccc(C(C)N4CCOCC4)cc3)cc(C3CCC(O)CC3)n2n1 (centres unmarked)
≤ 100 nM

---

IC50 values for UniProtKB P30530, compiled from several publications.

Recall the recorded IC50 for Nc1nccc(Oc2ccc(NC(=O)c3nn(C4CC4)cc(-c4ccc(F)cc4)c3=O)nc2)c1Cl with UniProtKB P30530 and state it.
9 nM

Query IC50 on UniProtKB P30530 for COCCOc1cc2nccc(Oc3ccc(NC(=O)c4ccc(C)n(-c5ccc(F)cn5)c4=O)cc3F)c2nc1OC
≤ 100 nM

Test system UniProtKB P30530; read-out IC50; what value for CCC[C@@H](C)Nc1ncc2c(OC3CCNCC3)ncc([C@H]3CC[C@@H](O)CC3)c2n1 ?
100 to 1000 nM

Value wanted: IC50 (UniProtKB P30530) of entry CN1CCC(n2cc(-c3cnc(N)c(-c4cc(-c5ccccc5)on4)c3)cn2)CC1
< 500 nM

# value lookup — system UniProtKB P30530, readout IC50, item CCCCNc1ncc2c(OC)ncc([C@H]3CC[C@H](O)CC3)c2n1
≤ 100 nM

***
What IC50 appears in the records for this compound with UniProtKB P30530? O[C@H]1CC[C@H](c2cc(-c3ccnc(N4CCOCC4)c3)c3cnc(N[C@H]4CCOC4)nn32)CC1
≤ 100 nM

Which measured IC50 belongs to COc1cc2nccc(Oc3ccc(NC(=O)c4c5n(c(C)c(C6=CCCCC6)c4=O)CCOC5)cc3)c2nc1OC , tested on UniProtKB P30530?
≤ 100 nM

GET /values?readout=IC50&system=UniProtKB P30530&item= COC[C@H](C)Nc1ncc2c(-c3ccnc(N4CCc5cnn(C)c5C4)c3)cc([C@H]3CC[C@H](O)CC3)n2n1
≤ 100 nM

IC50 of Nc1ncc(-c2cnn(C3CCN(C(=O)C4CC4)CC3)c2)cc1-c1ncc(-c2ccc(Cl)cc2)o1 on UniProtKB P30530?
< 500 nM

Recall the recorded IC50 for COC[C@H](C)Nc1ncc2c(-c3cnn(CCN4CCOCC4)c3)cc([C@H]3CC[C@H](O)CC3)n2n1 with UniProtKB P30530 and state it.
100 to 1000 nM

API: value(readout=IC50, system=UniProtKB P30530) for record C[C@@H](CC(F)(F)F)Nc1ncc2c(OC3CCN([C@H]4CCOC4)CC3)ncc([C@H]3CC[C@H](O)CC3)c2n1
100 to 1000 nM

Request: IC50, test system UniProtKB P30530, entry Nc1ncnn2c1c(-c1ccc(NC(=O)c3c4n(n(-c5ccccn5)c3=O)CCCC4)cc1F)cc2[C@H]1CC[C@H](O)CC1
< 5 nM

Request body: readout IC50, system UniProtKB P30530, query Cc1c(C(=O)Nc2ccc(Oc3ncnc4[nH]cc(-c5ccccc5)c34)c(F)c2)c(=O)c2cc(F)ccc2n1C . Return the value.
> 10000 nM

Kindly state the measured IC50 obtained for COCCOc1nc(Nc2ccc(CN3CCC(C)CC3)cc2)nc2[nH]cc(-c3ccc(OCc4ncccn4)cc3F)c12 with UniProtKB P30530.
< 30 nM

Observed IC50 on UniProtKB P30530 for Nc1ncc(-c2cnn(C3CCNCC3)c2)cc1-c1nnc(-c2ccc(F)cc2)o1 , please.
< 500 nM
